# reported IC50; entries follow
- Target System: Aurora A (Homo sapiens)
- Sequence (O14965 1-403): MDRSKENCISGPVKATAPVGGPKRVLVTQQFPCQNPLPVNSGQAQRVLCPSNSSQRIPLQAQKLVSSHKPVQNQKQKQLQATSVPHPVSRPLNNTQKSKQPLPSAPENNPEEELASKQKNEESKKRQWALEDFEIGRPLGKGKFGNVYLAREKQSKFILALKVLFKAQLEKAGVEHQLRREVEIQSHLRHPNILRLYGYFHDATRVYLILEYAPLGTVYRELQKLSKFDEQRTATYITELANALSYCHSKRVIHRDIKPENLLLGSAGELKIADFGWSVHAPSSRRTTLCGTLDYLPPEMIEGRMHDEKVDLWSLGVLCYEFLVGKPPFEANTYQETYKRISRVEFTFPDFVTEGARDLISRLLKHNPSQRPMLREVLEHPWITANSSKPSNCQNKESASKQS
- Experiment: In vitro kinase assay, Aurora A
- Conditions: recombinant protein (Upstate)
- Description: Inhibitory activity against Aurora A, CDK1/Cyclin B complex, CDK2/Cyclin E complex and CDK3/Cyclin E complex were measured by in vitro kinase assay using recombinant proteins. The assays were carried out by using recombinant proteins (Upstate Inc.) for Aurora A, CDK1/Cyclin B complex, CDK2/Cyclin E complex and CDK3/Cyclin E complex (respective cat. nos. 14-511, 14-450, 14-448 and 14-487), in accordance with the procedure described in the product instructions thereof. […]
Give just the numeric value; nM need not be written.

| Compound | IC50 [nM] |
| --- | --- |
| CC(C)OC(=O)c1cc(NC(C)(C)C(=O)Nc2nc3ccc4[nH]ncc4c3s2)ccc1Cl [compound 47] | 148 |
| CC(C)(Nc1cccc(C(=O)O)c1)C(=O)Nc1nc2c(C(F)(F)F)cc3[nH]ncc3c2s1 [compound 66] | 294 |
| CC(=O)Nc1cc(NC(C)(C)C(=O)Nc2nc3c(C(F)(F)F)cc4[nH]ncc4c3s2)ccc1F [compound 81] | 444 |
| CC(=O)Nc1cc(NCC(=O)Nc2nc3ccc4[nH]ncc4c3s2)ccc1Cl [compound 16] | 278 |
| O=C(Nc1nc2ccc3[nH]ncc3c2s1)C(Nc1cccc(O)c1)c1ccccc1 (stereo not shown) [compound 27] | 115 |

Incoming: Record request: IC50 value, item CCOC(=O)c1cc(NC(C)(C)C(=O)Nc2nc3ccc4[nH]ncc4c3s2)ccc1Cl [compound 44]
Outgoing: 107

Incoming: Record request: IC50 value, item O=C(CNc1ccc(Cl)c(O)c1)Nc1nc2ccc3[nH]ncc3c2s1 [compound 6]
Outgoing: 257

====

# reported pIC50; entries follow
- Target System: CDK3/Cyclin E complex (Homo sapiens)
- Sequence (Q00526 whole entry): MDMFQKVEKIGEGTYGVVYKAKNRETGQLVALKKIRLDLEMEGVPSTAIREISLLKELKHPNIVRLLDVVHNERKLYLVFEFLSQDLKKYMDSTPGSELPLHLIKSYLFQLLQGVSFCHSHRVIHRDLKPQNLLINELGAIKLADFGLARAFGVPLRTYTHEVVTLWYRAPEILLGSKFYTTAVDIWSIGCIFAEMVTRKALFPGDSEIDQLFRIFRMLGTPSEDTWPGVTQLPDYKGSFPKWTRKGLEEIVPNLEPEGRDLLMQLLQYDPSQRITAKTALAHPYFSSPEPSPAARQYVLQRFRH
- Sequence (P24864 whole entry partner): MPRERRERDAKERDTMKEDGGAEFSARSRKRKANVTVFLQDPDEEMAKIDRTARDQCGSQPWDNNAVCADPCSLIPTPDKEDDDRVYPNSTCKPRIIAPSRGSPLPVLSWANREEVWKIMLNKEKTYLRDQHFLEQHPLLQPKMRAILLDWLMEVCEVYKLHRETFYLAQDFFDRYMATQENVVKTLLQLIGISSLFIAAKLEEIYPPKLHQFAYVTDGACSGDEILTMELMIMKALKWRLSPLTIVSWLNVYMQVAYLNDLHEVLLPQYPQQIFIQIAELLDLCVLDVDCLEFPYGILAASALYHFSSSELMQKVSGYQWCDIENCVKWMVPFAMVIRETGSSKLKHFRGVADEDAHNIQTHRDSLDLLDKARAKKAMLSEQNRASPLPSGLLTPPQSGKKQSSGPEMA
- Experiment: In vitro kinase assay, CDK3/Cyclin E complex
- Conditions: recombinant protein (Upstate); read-out: CDK3/cyclinE IC50
Would you please state pIC50, meaning minus log10 of the concentration in mol/L, as a bare number?

| Molecule | pIC50 |
| --- | --- |
| Nc1cccc(NCC(=O)Nc2nc3ccc4[nH]ncc4c3s2)c1 [compound 11] | 6.45 |

Incoming: Record request: pIC50 value, item O=C(CNc1ccccc1)Nc1nc2ccc3[nH]ncc3c2s1 [compound 104]
Outgoing: 6.40

Incoming: Record request: pIC50 value, item CC(C)(Nc1ccc(Cl)c(C(=O)NCC(N)=O)c1)C(=O)Nc1nc2c(C(F)(F)F)cc3[nH]ncc3c2s1 [compound 85]
Outgoing: 9.22

Incoming: Record request: pIC50 value, item CCC(=O)Nc1cc(NC(C(=O)Nc2nc3c(C(F)(F)F)cc4[nH]ncc4c3s2)c2ccccc2)ccc1Cl (stereo not shown) [compound 31]
Outgoing: 6.45

Incoming: Record request: pIC50 value, item CC(C)(Nc1ccc(Cl)c(C(=O)O)c1)C(=O)Nc1nc2c(C(F)(F)F)cc3[nH]ncc3c2s1 [compound 136]
Outgoing: 7.00

Incoming: Record request: pIC50 value, item CC(C)(Nc1ccc(Cl)cc1)C(=O)Nc1nc2ccc3[nH]ncc3c2s1 [compound 35]
Outgoing: 7.10

Incoming: Record request: pIC50 value, item CC(Nc1ccc(Cl)cc1)C(=O)Nc1nc2ccc3[nH]ncc3c2s1 (stereo not shown) [compound 24]
Outgoing: 7.12

Incoming: Record request: pIC50 value, item CC(C)(Nc1ccc(Cl)nc1)C(=O)Nc1nc2c(C(F)(F)F)cc3[nH]ncc3c2s1 [compound 96]
Outgoing: 6.56

Incoming: Record request: pIC50 value, item CC(C)OC(=O)c1cc(NC2(C(=O)Nc3nc4ccc5[nH]ncc5c4s3)CC2)ccc1Cl [compound 123]
Outgoing: 6.71

Every entry's value here was drawn from patent US7879887B2.
